- experimental-system: T1, human SIRPA_V2 protein (human, UniProt P78324 31-504)
- T1 construct: Expressed on 293α cells from pcDNA3.2 V5-DEST or pFLAG V5-DEST (FLAG-tagged) vectors; also called human SIRPA Variant 2; ECD variant (full-length, amino acids 1 to 504)
- T1 sequence (P78324 other isoform, or with tags, fused parts or gaps limits assumed): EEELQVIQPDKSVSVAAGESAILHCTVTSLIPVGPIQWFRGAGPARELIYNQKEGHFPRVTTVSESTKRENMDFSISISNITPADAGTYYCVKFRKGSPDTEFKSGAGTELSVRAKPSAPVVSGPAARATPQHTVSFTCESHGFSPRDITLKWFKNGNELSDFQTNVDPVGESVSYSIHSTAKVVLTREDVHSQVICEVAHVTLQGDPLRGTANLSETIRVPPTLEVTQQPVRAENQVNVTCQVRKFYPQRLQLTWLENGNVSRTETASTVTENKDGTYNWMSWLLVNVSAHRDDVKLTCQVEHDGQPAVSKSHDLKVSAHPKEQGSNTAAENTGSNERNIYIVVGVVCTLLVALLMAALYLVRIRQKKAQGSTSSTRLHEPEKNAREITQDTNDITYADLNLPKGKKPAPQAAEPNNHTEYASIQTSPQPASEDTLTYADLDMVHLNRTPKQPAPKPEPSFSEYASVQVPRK
- experiment-description: cell-based ELISA on 293α cells expressing FLAG-tagged SIRPA_V2; Abs 490 normalized to FLAG tag [ii]
measured-attribute: EC50 (read off the curve)

Q: Endpoint output: EC50 (read off the curve) of humanized anti-SIRPA antibody hD13_H1L4 (antibody, human IgG4 S228P, kappa, F234A L235A, V domains shown, hH1 heavy chain (IgG4proFALA) and hL4 kappa light chain; also called hD13_HIL4; hD13_HIL4h) VH: QVQLVESGGGVVQPGRSLRLSCAASGFTFSDYGMIWVRQAPGKGLEWVASISSSSSYIYYADSVKGRFTISRDNSKNRLYLQMNSLRAEDTAVYYCARRYYGFNYPFDYWGQGTMVTVSS VL: DTVLTQSPDSLAVSLGQRATINCGASKSVRTYMHWYQQKPGQQPKLLIYSASNLEAGVPSRFSGSGSGTDFTLTISSLQAEDVAVYYCQQSNEPPYTFGQGTKVEIKR . Value?
Result: ~0.03 µg/mL
